// PLATELET COUNT lookup, one value per entry
# Organism: Rattus norvegicus
# Test Method Notes: DrugMatrix - Regimen: Daily Repeat
# Assay type: toxicity, organism-based, Sprague-Dawley
# Design: regimen Daily Repeat, gender Male, age 6-8 weeks
# Recorded Conditions: in vivo, po, 1500 mg/kg, 72 h, tissue Blood, route oral GAVAGE, dose level High, time 3 day, vehicle .5 % CMC
Test Readout: PLATELET COUNT

O=C(O)CCc1nc(-c2ccccc2)c(-c2ccccc2)o1 [OXAPROZIN] :: 1318.33 x10E3/uL
Cc1ccc(S(=O)(=O)NC(=O)NN2CCCCCC2)cc1 [TOLAZAMIDE] :: 1235.33 x10E3/uL
CC[C@H]1OC(=O)[C@H](C)[C@@H](O[C@H]2C[C@@](C)(OC)[C@@H](O)[C@H](C)O2)[C@H](C)[C@@H](O[C@@H]2O[C@H](C)C[C@H](N(C)C)[C@H]2O)[C@](C)(O)C[C@@H](C)C(=O)[C@H](C)[C@@H](O)[C@]1(C)O [ERYTHROMYCIN] :: 1070 x10E3/uL
COc1ccc(Cl)cc1C(=O)NCCc1ccc(S(=O)(=O)NC(=O)NC2CCCCC2)cc1 [GLYBURIDE] :: 1260.33 x10E3/uL
COc1cc(/C=C/C(=O)O)ccc1O [FERULATE] :: 1425.67 x10E3/uL

###

# Species on record: Rattus norvegicus
# Test Method Notes: DrugMatrix - Regimen: Daily Repeat
# Format: toxicity, organism-based, Sprague-Dawley
# Set-up: regimen Daily Repeat, gender Male, age 6-8 weeks
# Recorded Conditions: in vivo, po, 0 mg/kg, 72 h, tissue Plasma, route oral GAVAGE, dose level Control, time 3 day, […]
// TOTAL BILIRUBIN lookup, one value per entry
Test Readout: TOTAL BILIRUBIN (mg/dL)

CC(C)(c1ccc(O)cc1)c1ccc(O)cc1 :: 0.2
COc1ccccc1OCCNCC(O)COc1cccc2[nH]c3ccccc3c12 (centres undefined) :: 0.2
Cc1cccc(C)c1NC(=O)C(C)N (centres undefined) [TOCAINIDE] :: 0.18
CCC(C)(C)C(=O)O[C@H]1C[C@@H](C)C=C2C=C[C@H](C)[C@H](CC[C@@H]3C[C@@H](O)CC(=O)O3)[C@H]21 :: 0.17
c1ccc2c(c1)Nc1ccccc1S2 :: 0.2
CCOC(=O)C1=C(C)NC(C)=C(C(=O)OCC)C1c1ccccc1/C=C/C(=O)OC(C)(C)C :: 0.13
CS(=O)(=O)c1ccc(C2=C(c3ccccc3)C(=O)OC2)cc1 :: 0.2
CC#C[C@]1(O)CC[C@H]2[C@@H]3CCC4=CC(=O)CCC4=C3[C@@H](c3ccc(N(C)C)cc3)C[C@@]21C :: 0.17
Oc1ncnc2[nH]ncc12 :: 0.23

###

# Species on record: Rattus norvegicus
# Test Method Notes: DrugMatrix - Regimen: Daily Repeat
# Assay type: toxicity, organism-based, Sprague-Dawley
# Set-up: regimen Daily Repeat, gender Male, age 6-8 weeks
# Recorded Conditions: in vivo, iv, 0 mg/kg, 72 h, tissue Plasma, dose level Control, time 3 day, vehicle 100 % SALINE
Test Readout: PHOSPHORUS (mg/dL)

CC(=O)[C@]1(O)Cc2c(O)c3c(c(O)c2[C@@H](O[C@H]2C[C@H](N)[C@H](O)[C@H](C)O2)C1)C(=O)c1ccccc1C3=O :: 11.13
CO[C@@]12[C@H](COC(N)=O)C3=C(C(=O)C(C)=C(N)C3=O)N1C[C@@H]1N[C@@H]12 :: 11.73
COC(=O)C[C@](O)(CCC(C)(C)O)C(=O)O[C@@H]1C(OC)=C[C@]23CCCN2CCc2cc4c(cc2[C@H]13)OCO4 :: 12.12
Cc1c(N)nc([C@H](CC(N)=O)NC[C@H](N)C(N)=O)nc1C(=O)N[C@H](C(=O)N[C@H](C)[C@@H](O)[C@H](C)C(=O)N[C@H](C(=O)NCCc1nc(-c2nc(C(=O)NCCC[S+](C)C)cs2)cs1)[C@@H](C)O)[C@@H](O[C@@H]1O[C@@H](CO)[C@@H](O)[C@H](O)[C@@H]1O[C@H]1O[C@H](CO)[C@@H](O)[C@H](OC(N)=O)[C@@H]1O)c1c[nH]cn1.[Br-] :: 11.27

###

// URIC ACID lookup, one value per entry
# Organism: Rattus norvegicus
# Test Method Notes: DrugMatrix - Regimen: Daily Repeat
# Format: toxicity, organism-based, Sprague-Dawley
# Set-up: regimen Daily Repeat, gender Male, age 6-8 weeks
# Recorded Conditions: in vivo, iv, 0 mg/kg, 72 h, tissue Plasma, dose level Control, time 3 day, vehicle 100 % SALINE
Test Readout: URIC ACID (mg/dL)

CO[C@@]12[C@H](COC(N)=O)C3=C(C(=O)C(C)=C(N)C3=O)N1C[C@@H]1N[C@@H]12 [MITOMYCIN] :: 1.28
Cc1c(N)nc([C@H](CC(N)=O)NC[C@H](N)C(N)=O)nc1C(=O)N[C@H](C(=O)N[C@H](C)[C@@H](O)[C@H](C)C(=O)N[C@H](C(=O)NCCc1nc(-c2nc(C(=O)NCCC[S+](C)C)cs2)cs1)[C@@H](C)O)[C@@H](O[C@@H]1O[C@@H](CO)[C@@H](O)[C@H](O)[C@@H]1O[C@H]1O[C@H](CO)[C@@H](O)[C@H](OC(N)=O)[C@@H]1O)c1c[nH]cn1.[Br-] [BLEOMYCIN A2] :: 1.28
CC(=O)[C@]1(O)Cc2c(O)c3c(c(O)c2[C@@H](O[C@H]2C[C@H](N)[C@H](O)[C@H](C)O2)C1)C(=O)c1ccccc1C3=O [IDARUBICIN] :: 1.23
COC(=O)C[C@](O)(CCC(C)(C)O)C(=O)O[C@@H]1C(OC)=C[C@]23CCCN2CCc2cc4c(cc2[C@H]13)OCO4 [HARRINGTONINE] :: 1.63

###

# Species on record: Rattus norvegicus
# Test Method Notes: DrugMatrix - Regimen: Daily Repeat
# Format: toxicity, organism-based, Sprague-Dawley
# Parameters: regimen Daily Repeat, gender Male, age 6-8 weeks
# Recorded Conditions: in vivo, po, 0 mg/kg, 72 h, tissue Plasma, route oral GAVAGE, dose level Control, time 3 day, vehicle 100 % SALINE
Test Readout: ALBUMIN (G/DL)

O=[As][O-].[Na+] [SODIUM ARSENITE] :: 4.3
CC(CN1c2ccccc2Sc2ccccc21)N(C)C (stereo not given) :: 4
CCO :: 4.3
Cc1ccnc2c1NC(=O)c1cccnc1N2C1CC1 :: 4.13
CCN(CC)N=O :: 4.33

###

// SODIUM lookup, one value per entry
# Organism: Rattus norvegicus
# Test Method Notes: DrugMatrix - Regimen: Daily Repeat
# Format: toxicity, organism-based, Sprague-Dawley
# Set-up: regimen Daily Repeat, gender Male, age 6-8 weeks
# Recorded Conditions: in vivo, po, 0 mg/kg, 120 h, tissue Plasma, route oral GAVAGE, dose level Control, time 5 day, vehicle 100 % WATER
Test Readout: SODIUM

CCN(CC)C(=S)SSC(=S)N(CC)CC :: 142.43 MEQ/L
C1CCN2C[C@@H]3C[C@@H](CN4CCCC[C@@H]34)[C@H]2C1 :: 145.55 MEQ/L
C[N+](C)(C)CCOC(N)=O.[Cl-] :: 145.35 MEQ/L
CN1C(=O)OC(C)(C)C1=O :: 148.17 MEQ/L
CC(Cl)(Cl)Cl :: 145.55 MEQ/L
NN [HYDRAZINE] :: 140.53 MEQ/L
Cc1cc(C(C)(C)C)c(O)c(C)c1CC1=NCCN1 :: 142.77 MEQ/L
Cc1cn([C@H]2C=C[C@@H](CO)O2)c(=O)[nH]c1=O :: 145.35 MEQ/L
CCC1(c2ccccc2)C(=O)NC(=O)NC1=O :: 145 MEQ/L

###

# Species: Rattus norvegicus
# Test Method Notes: DrugMatrix - Regimen: Daily Repeat
# Format: toxicity, organism-based, Sprague-Dawley
# Parameters: regimen Daily Repeat, gender Male, age 6-8 weeks
# Recorded Conditions: in vivo, po, 0 mg/kg, 72 h, tissue Plasma, route oral GAVAGE, dose level Control, time 3 day, vehicle .5 % CMC
// ALBUMIN lookup, one value per entry
Test Readout: ALBUMIN (G/DL)

Cc1cc2c(s1)Nc1ccccc1N=C2N1CCN(C)CC1 [OLANZAPINE] :: 4.18
Cl.NC[C@H]1CC[C@H](C(=O)Oc2ccc(CCC(=O)O)cc2)CC1 [CETRAXATE HYDROCHLORIDE] :: 4.3
CCN1CCN(c2cc3c(cc2F)c(=O)c(C(=O)O)cn3C2CC2)CC1 [ENROFLOXACIN] :: 3.57
CC(C)NCC(O)COc1ccc(CC(N)=O)cc1 (stereo not drawn) [ATENOLOL] :: 4.07
CCOc1cc(N)c(Cl)cc1C(=O)NCC1CN(Cc2ccc(F)cc2)CCO1 (stereo not drawn) [MOSAPRIDE] :: 4.15
CCN1C[C@]2(COC)[C@H](O)C[C@H](OC)[C@@]34[C@@H]5C[C@@]6(O)[C@H](OC(=O)c7ccccc7)[C@@H]5[C@@](OC(C)=O)([C@@H]([C@H](OC)[C@H]23)[C@@H]14)[C@@H](O)[C@@H]6OC [ACONITINE] :: 3.8
O=C(O)CCc1nc(-c2ccccc2)c(-c2ccccc2)o1 [OXAPROZIN] :: 4.33
NC(=O)NC(=O)Cc1ccccc1 [PHENACEMIDE] :: 4.37

Cited source for all entries: ChEMBL document CHEMBL3885881
